IC50: recorded values
# measurement description: Inhibition of ABCG2 in human H460/MX20 cells assessed as potentiation of mitoxantrone induced antiproliferative activity by measuring mitoxantrone IC50 at 10 uM preincubated for 2 hrs followed by mitoxantrone addition measured after 72 hrs by MTT assay (Rvb = 6.161 +/- 0.172 microM)
Express your answer as a number followed by its unit.

Here's what some known entries look like.
COc1cccc(-n2nnc(-c3ccccc3NC(=O)Nc3ccccc3[N+](=O)[O-])n2)c1    882 nM
COc1cccc(-n2nnc(-c3ccccc3NC(=O)Nc3ccc(N)cc3)n2)c1    379 nM
COc1cccc(-n2nnc(-c3ccccc3NC(=O)c3ccc(NC(=O)CBr)cc3)n2)c1    283 nM

stdin: Suppose we examine the compound COc1cccc(-n2nnc(-c3ccccc3NC(=O)c3ccc(N)cc3)n2)c1 ; what IC50 value has been reported?
stdout: 299 nM
